Assay: in vivo
Set-up: species or system mice
Settings: male, NOD.Cg-Rag1tm1Mom Il2rgtm1Wjl/SzJ (NRG), mouse, iv, total radioactivity, Biodistribution: Small Intestine
Where a SMILES comes first, the peptide text is derived from it. Bridges are numbered along the chain shown (N, C = ends). [ ]: non-standard residue; d: D form. The star is where a group is joined. X3 = O=C(O)CN1CCN(CC(=O)O)CCN(CC(=O)N[C@@H](CS(=O)(=O)O)C(=O)N[C@@H](CCCCNC(=O)CCCc2ccc(Br)cc2)C(=O)*)CCN(CC(=O)O)CC1; X5 = O=C(O)CN1CCN(CC(=O)O)CCN(CC(=O)N[C@@H](CS(=O)(=O)O)C(=O)N[C@@H](CCCCNC(=O)CCCc2ccc(Cl)cc2)C(=O)*)CCN(CC(=O)O)CC1; X1 = O=C(O)CN1CCN(CC(=O)O)CCN(CC(=O)N[C@@H](CS(=O)(=O)O)C(=O)N[C@@H](CCCCNC(=O)CCCc2ccc(I)cc2)C(=O)*)CCN(CC(=O)O)CC1; 2Nal = N[C@@H](Cc1ccc2ccccc2c1)C(=O)O; Lys(iPr) = CC(C)NCCCC[C@H](N)C(=O)O
tissue uptake at 3 h reference
Note to self: number, then unit, no commentary.

INSERT INTO results (compound, parameter, reading) VALUES
  ('CC(C)NCCCC[C@H](NC(=O)[C@H]1CCC(=O)N[C@@H](CCCCNC(=O)[C@H](CCCCNC(=O)CCCc2ccc(Br)cc2)NC(=O)[C@H](CS(=O)(=O)O)NC(=O)CN2CCN(CC(=O)O)CCN(CC(=O)O)CCN(CC(=O)O)CC2)C(=O)N[C@@H](Cc2ccc(O)cc2)C(=O)N[C@@H](CCCCNC(C)C)C(=O)N[C@H](CCCNC(=N)N)C(=O)N[C@@H](Cc2ccc3ccccc3c2)C(=O)N[C@H](C)C(=O)N1)C(N)=O [[^177Lu]Lu-BL34L20, metal not drawn] (K(X3)Y[Lys(iPr)][dR][2Nal][dA][dE][Lys(iPr)]-NH2; lactam N-7)', 'tissue uptake at 3 h', '1.02 %ID/g'),
  ('CC(C)NCCCC[C@H](NC(=O)[C@H]1CCC(=O)N[C@@H](CCCCNC(=O)[C@H](CCCCNC(=O)CCCc2ccc(I)cc2)NC(=O)[C@H](CS(=O)(=O)O)NC(=O)CN2CCN(CC(=O)O)CCN(CC(=O)O)CCN(CC(=O)O)CC2)C(=O)N[C@@H](Cc2ccc(O)cc2)C(=O)N[C@@H](CCCCNC(C)C)C(=O)N[C@H](CCCNC(=N)N)C(=O)N[C@@H](Cc2ccc3ccccc3c2)C(=O)N[C@H](C)C(=O)N1)C(N)=O [[^68Ga]Ga-BL34L11, metal not drawn] (K(X1)Y[Lys(iPr)][dR][2Nal][dA][dE][Lys(iPr)]-NH2; lactam N-7)', 'tissue uptake at 3 h', '1.11 %ID/g');

Consider the additional compound presented here.
Would you kindly share the measured tissue uptake at 3 h for CC(C)NCCCC[C@H](NC(=O)[C@H]1CCC(=O)N[C@@H](CCCCNC(=O)[C@H](CCCCNC(=O)CCCc2ccc(Cl)cc2)NC(=O)[C@H](CS(=O)(=O)O)NC(=O)CN2CCN(CC(=O)O)CCN(CC(=O)O)CCN(CC(=O)O)CC2)C(=O)N[C@@H](Cc2ccc(O)cc2)C(=O)N[C@@H](CCCCNC(C)C)C(=O)N[C@H](CCCNC(=N)N)C(=O)N[C@@H](Cc2ccc3ccccc3c2)C(=O)N[C@H](C)C(=O)N1)C(N)=O [[^68Ga]Ga-BL34L16, metal not drawn] (K(X5)Y[Lys(iPr)][dR][2Nal][dA][dE][Lys(iPr)]-NH2; lactam N-7) ?
0.41 %ID/g
